test system: EW-16 (Ewing's Sarcoma); test: combination Emax (second highest fraction inhibited in the dose matrix, 72 h); higher = more inhibition; extreme values may be limits of the assay
// Not satisfied strictly below 0.3 in combination Emax; Satisfied otherwise

compound	cat
Cc1c2c(nn1C)CSCc1cc(n(C)n1)CSc1cc(c3ccccc3c1)OCCCc1c(C(=O)O)n(C)c3c-2c(Cl)ccc13 [AZD5991] + CN(C)CCCOc1ccc(-c2ccc3ncc4c(c3c2)n(C2CCOCC2)c(=O)n4C)cn1 [AZD0156] (first compound max 1 µM, 7x7, partner max 1 µM)	Not satisfied
CC1(C)CCC(CN2CCN(c3ccc(C(=O)NS(=O)(=O)c4ccc(NCC5CCOCC5)c([N+](=O)[O-])c4)c(Oc4cnc5[nH]ccc5c4)c3)CC2)=C(c2ccc(Cl)cc2)C1 [Venetoclax] + C=CCn1c(=O)c2cnc(Nc3ccc(N4CCN(C)CC4)cc3)nc2n1-c1cccc(C(C)(C)O)n1 [AZD1775] (first compound max 1 µM, partner max 1 µM)	Satisfied
CC(=O)c1c(C)c2cnc(Nc3ccc(N4CCNCC4)cn3)nc2n(C2CCCC2)c1=O [Palbociclib] + Cn1cnc2c(F)c(Nc3ccc(Br)cc3Cl)c(C(=O)NOCCO)cc21 [Selumetinib] (first compound max 10 µM, 7x7, partner max 10 µM)	Satisfied
C[C@@H](c1ccc2nccn2c1)n1nnc2ncc(-c3cnn(C)c3)nc21 [Savolitinib] + Cc1c2c(nn1C)CSCc1cc(n(C)n1)CSc1cc(c3ccccc3c1)OCCCc1c(C(=O)O)n(C)c3c-2c(Cl)ccc13 [AZD5991] (first compound max 1 µM, 7x7, partner max 1 µM)	Not satisfied
CN(C)CCCOc1ccc(-c2ccc3ncc4c(c3c2)n(C2CCOCC2)c(=O)n4C)cn1 [AZD0156] + CCN(CCO)CCCOc1ccc2c(Nc3cc(CC(=O)Nc4cccc(F)c4)[nH]n3)ncnc2c1 [AZD2811] (first compound max 1 µM, 7x7, partner max 1 µM)	Satisfied
CC1(C)CCC(CN2CCN(c3ccc(C(=O)NS(=O)(=O)c4ccc(NCC5CCOCC5)c([N+](=O)[O-])c4)c(Oc4cnc5[nH]ccc5c4)c3)CC2)=C(c2ccc(Cl)cc2)C1 [Venetoclax] + CN(C)CCCOc1ccc(-c2ccc3ncc4c(c3c2)n(C2CCOCC2)c(=O)n4C)cn1 [AZD0156] (first compound max 1 µM, 7x7, partner max 1 µM)	Not satisfied
Cc1c2c(nn1C)CSCc1cc(n(C)n1)CSc1cc(c3ccccc3c1)OCCCc1c(C(=O)O)n(C)c3c-2c(Cl)ccc13 [AZD5991] + Cn1cnc2c(F)c(Nc3ccc(Br)cc3Cl)c(C(=O)NOCCO)cc21 [Selumetinib] (first compound max 1 µM, 7x7, partner max 3 µM)	Not satisfied
